# tested system: Neuronal acetylcholine receptor; alpha4/beta2 (Homo sapiens, UniProt P17787+P43681)
# Sequence (P17787 whole entry): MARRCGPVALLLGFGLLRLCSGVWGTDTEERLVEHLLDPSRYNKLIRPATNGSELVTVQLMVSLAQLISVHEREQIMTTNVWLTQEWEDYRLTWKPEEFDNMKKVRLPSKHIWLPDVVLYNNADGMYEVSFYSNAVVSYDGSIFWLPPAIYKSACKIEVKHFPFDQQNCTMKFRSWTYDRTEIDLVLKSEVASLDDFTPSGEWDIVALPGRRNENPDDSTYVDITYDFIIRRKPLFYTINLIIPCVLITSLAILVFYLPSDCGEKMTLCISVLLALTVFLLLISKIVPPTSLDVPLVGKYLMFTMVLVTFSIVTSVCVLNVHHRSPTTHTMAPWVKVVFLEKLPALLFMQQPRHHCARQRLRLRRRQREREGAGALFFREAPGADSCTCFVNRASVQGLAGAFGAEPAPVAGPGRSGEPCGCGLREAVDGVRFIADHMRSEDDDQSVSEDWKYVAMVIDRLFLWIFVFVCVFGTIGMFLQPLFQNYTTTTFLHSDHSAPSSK
# Sequence (P43681 whole entry): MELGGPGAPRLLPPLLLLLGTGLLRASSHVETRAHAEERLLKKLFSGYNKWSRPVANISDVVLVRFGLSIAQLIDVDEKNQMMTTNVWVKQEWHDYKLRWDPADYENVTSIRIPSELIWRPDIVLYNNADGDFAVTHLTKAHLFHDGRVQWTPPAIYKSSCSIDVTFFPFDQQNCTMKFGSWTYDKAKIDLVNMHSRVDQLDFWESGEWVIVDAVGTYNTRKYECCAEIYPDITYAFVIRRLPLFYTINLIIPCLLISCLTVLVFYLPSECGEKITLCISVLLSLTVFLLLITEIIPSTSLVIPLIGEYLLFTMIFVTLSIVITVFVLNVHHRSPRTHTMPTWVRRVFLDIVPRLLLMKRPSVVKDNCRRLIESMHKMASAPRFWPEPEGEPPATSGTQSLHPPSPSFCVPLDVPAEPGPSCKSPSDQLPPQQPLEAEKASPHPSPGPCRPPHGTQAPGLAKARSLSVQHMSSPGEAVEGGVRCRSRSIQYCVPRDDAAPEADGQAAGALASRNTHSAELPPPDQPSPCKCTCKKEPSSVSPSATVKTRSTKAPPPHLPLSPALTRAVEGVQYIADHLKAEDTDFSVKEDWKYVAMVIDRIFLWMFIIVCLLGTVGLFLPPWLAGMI
# procedure text: Antagonist activity at alpha4beta2 nAChR (unknown origin) expressed in HEK293 cells assessed as reduction in acetylcholine-induced currents at -80 mV holding potential by whole-cell patch clamp method
recorded endpoint: IC50 (µM)
Numbers only, in µM.

Query :: Fill in the blank: the reported IC50 of Cl.Clc1ccc(OC[C@@H]2C[C@H]3C[C@H]3N2)cn1 is ____.
Result :: 7.31

---

# procedure text: Protein binding in dog plasma assessed as unbound fraction at […] incubated for 6 hrs by LC-MS/MS analysis
# Format: ADME, cell-free, Canis lupus familiaris
recorded endpoint: fraction unbound at 6 h

Query :: Give the measured fraction unbound at 6 h of Cl.Clc1ccc(OC[C@@H]2C[C@H]3C[C@H]3N2)cn1 .
Result :: 0.31
